# collection of pIC50 values tested on Human FIIa (Homo sapiens, UniProt P00734)
pIC50: −log10 of the molar value.
Parameter Measured: pIC50

| Molecule | pIC50 |
| --- | --- |
| [2H]C([2H])([2H])n1ncc2c1-c1cc(F)cc(c1)[C@@H](n1cnc(-c3cc(Cl)ccc3-n3cc(Cl)nn3)cc1=O)CCC[C@@H](C)C(=O)N2 [Comparative compound 3, reference compound] | 5.67 |

a = [2H]C([2H])([2H])n1ncc2c1-c1cc(cc(F)c1F)[C@@H](n1cnc(-c3c(-n4cc(C(F)(F)F)nn4)ccc(Cl)c3F)cc1=O)CCC[C@@H](C)C(=O)N2 [Compound 16]
b = [2H]C([2H])([2H])n1ncc2c1-c1cccc(c1)[C@@H](n1cnc(-c3cc(Cl)ccc3-n3cc(Cl)nn3)cc1=O)CCC[C@@H](C)C(=O)N2 [Comparative compound 2, reference compound]
Lowest pIC50? choose a or b Give the label under which the chosen entry appears.
a
(a: 5.04, b: 5.50)
